Data origin: patent US8735406B2

# EXPERIMENTAL TARGET: FAAH (Rattus norvegicus, UniProt P97612)
# Construct: Preparation of Rat Brain Membranes Preparations (FAAH Enzyme Solution); from tissue; host or cells: rat cerebrum (brain membrane preparation)
# Sequence (P97612 whole entry): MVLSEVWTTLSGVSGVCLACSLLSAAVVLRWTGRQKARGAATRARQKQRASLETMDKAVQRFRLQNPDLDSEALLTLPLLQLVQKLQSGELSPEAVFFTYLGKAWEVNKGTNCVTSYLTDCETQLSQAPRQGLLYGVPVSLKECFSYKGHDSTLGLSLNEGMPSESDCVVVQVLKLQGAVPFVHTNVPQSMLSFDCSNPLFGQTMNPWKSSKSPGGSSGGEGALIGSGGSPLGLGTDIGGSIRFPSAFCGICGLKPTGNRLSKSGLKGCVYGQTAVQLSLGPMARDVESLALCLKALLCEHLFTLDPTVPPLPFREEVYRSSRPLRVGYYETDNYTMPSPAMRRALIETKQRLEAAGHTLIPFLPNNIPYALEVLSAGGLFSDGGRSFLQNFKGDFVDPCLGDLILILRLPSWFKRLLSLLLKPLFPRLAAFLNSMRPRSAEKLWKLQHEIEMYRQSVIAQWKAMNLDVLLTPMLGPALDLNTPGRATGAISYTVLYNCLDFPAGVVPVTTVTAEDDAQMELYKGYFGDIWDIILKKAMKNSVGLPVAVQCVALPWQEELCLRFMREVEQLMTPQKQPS
# EXPERIMENT SUMMARY: Determination of FAAH inhibitory activity in rat (rat brain membrane preparations, [3H]-anandamide hydrolysis)
# Format: biochemical
# PROTOCOL CONDITIONS: rat brain membrane preparations; test substance 0.1 nM to 1 μM; read-out: FAAH Inhibition IC50
OBSERVED PROPERTY: IC50 (nM)

In the examples that follow, each entry is paired with its recorded IC50.
>  <MOLECULE>
COc1cccc(-c2ncc3c(n2)n(C)c(=O)n3C(=O)N2CCC(CCc3ccc(F)cc3)CC2)c1

>  <MEASURED>
6

$$$$
>  <MOLECULE>
COCc1ncc2c(n1)n(C)c(=O)n2C(=O)N1CC(c2ccc(F)cc2F)C1

>  <MEASURED>
6

$$$$
>  <MOLECULE>
COCc1ncc2c(n1)n(C)c(=O)n2C(=O)N1CC(c2ccc(F)cc2)C1

>  <MEASURED>
5

$$$$
>  <MOLECULE>
Cn1c(=O)n(C(=O)N2CCC2)c2nc(CCc3cccc(F)c3)ncc21

>  <MEASURED>
5

$$$$
>  <MOLECULE>
Cn1c(=O)n(C(=O)N2CCC2)c2cnc(COc3ccccc3)nc21

>  <MEASURED>
20

$$$$

(I) COc1cccc(N2CCN(C(=O)n3c(=O)n(C)c4nc(-c5ccccc5)ncc43)CC2)n1
(II) Cn1c(=O)n(C(=O)N2CCCC2)c2nc(-c3cccc(OC(F)(F)F)c3)ncc21
Query :: Given the two records I and II , choose the one whose IC50 value is lower. Answer by stating the label of the chosen item.
Result :: II
(II: 6 nM, I: 24 nM)
